Biological target: PXR (NR1I2) ligand binding domain (Homo sapiens, UniProt O75469)
Sequence (O75469 whole entry): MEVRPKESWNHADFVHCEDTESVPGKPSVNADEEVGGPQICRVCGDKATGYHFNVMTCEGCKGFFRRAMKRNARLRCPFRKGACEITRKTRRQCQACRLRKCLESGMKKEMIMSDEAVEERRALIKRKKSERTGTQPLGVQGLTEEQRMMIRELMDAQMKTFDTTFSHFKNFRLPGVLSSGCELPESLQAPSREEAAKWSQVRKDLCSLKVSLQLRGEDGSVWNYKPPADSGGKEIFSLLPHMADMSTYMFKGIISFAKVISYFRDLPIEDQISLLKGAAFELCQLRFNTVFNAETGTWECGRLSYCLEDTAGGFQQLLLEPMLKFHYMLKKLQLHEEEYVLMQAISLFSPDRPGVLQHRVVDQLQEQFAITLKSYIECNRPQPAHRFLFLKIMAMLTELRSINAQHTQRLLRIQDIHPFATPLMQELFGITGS
Assay: Inhibition of BODIPY FL vindoline binding to recombinant human GST-tagged PXR LBD (111 to 434 residues) expressed in baculovirus infected insect cells at 10 uM incubated for 1 mins under shaking condition followed by 60 mins under dark condition by TR-FRET assay relative to control
Settings: probe BODIPY FL vindoline, time 61 min
RECORDED ENDPOINT: inhibition at 1.017 h, 10 µM (%)

Sample answers from the record:
{"MOLECULE": "COc1ccc(OC)c(-n2nnc(C(=O)Nc3cc(C(C)(C)C)ccc3OCCCN3CCOCC3)c2C)c1", "TEST TARGET": "PXR (NR1I2) ligand binding domain (Homo sapiens, UniProt O75469)", "RECORDED ENDPOINT": "inhibition at 1.017 h, 10 µM", "RESULT UNITS": "%", "READOUT NUMBER": 49}
{"MOLECULE": "COc1ccc(OC)c(-n2nnc(C(=O)Nc3cc(C(C)(C)C)ccc3OCCN3CCOCC3)c2C)c1", "TEST TARGET": "PXR (NR1I2) ligand binding domain (Homo sapiens, UniProt O75469)", "RECORDED ENDPOINT": "inhibition at 1.017 h, 10 µM", "RESULT UNITS": "%", "READOUT NUMBER": 68}
{"MOLECULE": "CCCCCOc1ccc(C(C)(C)C)cc1NC(=O)c1nnn(-c2cc(OC)ccc2OC)c1C", "TEST TARGET": "PXR (NR1I2) ligand binding domain (Homo sapiens, UniProt O75469)", "RECORDED ENDPOINT": "inhibition at 1.017 h, 10 µM", "RESULT UNITS": "%", "READOUT NUMBER": 86}
{"MOLECULE": "CCCOc1ccc(C(C)(C)C)cc1NC(=O)c1nnn(-c2cc(OC)ccc2OC)c1C", "TEST TARGET": "PXR (NR1I2) ligand binding domain (Homo sapiens, UniProt O75469)", "RECORDED ENDPOINT": "inhibition at 1.017 h, 10 µM", "RESULT UNITS": "%", "READOUT NUMBER": 79}
{"MOLECULE": "COc1ccc(OC)c(-n2nnc(C(=O)Nc3cccc(-n4cccc4)c3)c2C)c1", "TEST TARGET": "PXR (NR1I2) ligand binding domain (Homo sapiens, UniProt O75469)", "RECORDED ENDPOINT": "inhibition at 1.017 h, 10 µM", "RESULT UNITS": "%", "READOUT NUMBER": 24}
{"MOLECULE": "CCCC(C)Oc1ccc(C(C)(C)C)cc1NC(=O)c1nnn(-c2cc(C)ccc2OC)c1C (racemic)", "TEST TARGET": "PXR (NR1I2) ligand binding domain (Homo sapiens, UniProt O75469)", "RECORDED ENDPOINT": "inhibition at 1.017 h, 10 µM", "RESULT UNITS": "%", "READOUT NUMBER": 91}

I. CCCCOc1ccc(C(C)(C)C)cc1NC(=O)c1nnn(-c2cc(OC)ccc2Br)c1C
II. CCc1cccc(NC(=O)c2nnn(-c3cc(OC)ccc3OC)c2C)c1
III. COc1ccc(OC)c(-n2nnc(C(=O)Nc3ccc(N(C)C)c(C(C)(C)C)c3)c2C)c1
Enquiry: Order the records by inhibition at 1.017 h, 10 µM, with each subsequent value no larger than the one before. Sort and list the labels as requested.
Return: III, II, I
